Form field: pIC50 (one value per entry).
target: full-length NS3/4A protease (genotype 1b) (Hepatitis C virus genotype 1b); construct: wild-type HCV NS3 (HCV polyprotein residues 1027–1657); His-tag (N); made in house; assay: biochemical; conditions: purified full-length NS3/4A, genotype 1b wild-type; read-out: IC50 Full-length NS3/4A
pIC50: −log10 of the molar value.
valueType: pIC50

> print(dat)
                                   molsmiles  valuetype  valueoperator  endpointresult
 1  Cc1ccc(S(=O)(=O)Nc2ccccc2C(=O)Nc2nc3c(C)ccc(C)c3s2)cc1      pIC50              <            4.00
 2  CC1(C)CCc2cc(/C=C(\C#N)C(=O)c3cccc(C(F)(F)F)c3)ccc2O1      pIC50              =            5.12
 3  Cc1cc(Br)ccc1NC(=O)Cc1csc(NS(=O)(=O)c2ccccc2)n1      pIC50              =            4.63
 4  O=C(Cc1csc(NS(=O)(=O)c2ccc(Cl)cc2)n1)Nc1cccc(F)c1      pIC50              =            4.62
 5  O=C(Cc1csc(NS(=O)(=O)c2ccccc2)n1)Nc1ccccc1      pIC50              =            4.60
 6  O=C(Cc1csc(NS(=O)(=O)c2ccccc2)n1)Nc1cccc(F)c1      pIC50              <            4.00
 7  Cc1ccc(S(=O)(=O)Nc2nc(CC(=O)Nc3ccc(Br)cc3C)cs2)cc1      pIC50              <            4.00
 8  CC(C)C(=O)N1CCc2ccc(NC(=O)COc3ccc(F)cc3)cc2C1      pIC50              =            4.69
 9  Cc1ccc(S(=O)(=O)Nc2ccccc2C(=O)Nc2nc3c(Br)cccc3s2)cc1      pIC50              =            4.81
10  Cc1cccc(NC(=O)Cc2csc(NS(=O)(=O)c3ccc(Cl)cc3)n2)c1      pIC50              =            4.66
11  Cc1ccc(NC(=O)Cc2csc(NS(=O)(=O)c3ccc(Cl)cc3)n2)cc1Cl      pIC50              <            4.00
12  COc1ccc(S(=O)(=O)Nc2nc(CC(=O)Nc3ccc(Br)cc3C)cs2)cc1      pIC50              =            5.21
13  CCc1ccc(NC(=O)Cc2csc(NS(=O)(=O)c3ccc(C)cc3)n2)cc1      pIC50              <            4.00
14  Cc1cc(NC(=O)Cc2csc(NS(=O)(=O)c3ccccc3)n2)ccc1Br      pIC50              =            5.66
15  COc1ccc(S(=O)(=O)Nc2nc(CC(=O)Nc3ccc(Br)c(C)c3)cs2)cc1      pIC50              =            4.84

----------
Here's what we have: IC50 numbers for Trypsin (Homo sapiens, UniProt P07477).
valueType: IC50

> print(dat)
                                   molecule  endpointresult
1  Cc1cc(NC(=O)Cc2csc(NS(=O)(=O)c3ccccc3)n2)ccc1Br        > 100 µM
2  O=C1c2c(O)ccc(O)c2C(=O)c2c(NCCNCCO)ccc(NCCNCCO)c21 [Compound 4, mitoxantrone, reference compound]        > 100 µM
3  CC(C)C(=O)N1CCc2ccc(NC(=O)COc3ccc(F)cc3)cc2C1        > 100 µM

----------
Biological target: full-length NS3/4A protease (genotype 1b) (Hepatitis C virus genotype 1b)
Construct: wild-type HCV NS3 (HCV polyprotein residues 1027–1657); His-tag (N); made in house
Test: biochemical
Conditions: preliminary SAR of compound 12 analogues
Experimental: All assays were done in duplicate in black 384-well plates (Matrix Technologies). […] 200 nL of 10 mM compound (50 µM final concentrations) were then added and incubated for 5 minutes. Enzyme reactions were initiated with 10 µL of substrate Ac-DE-Dap(QXL520)-EE-Abu-ψ-[COO]AS-C(5-FAMsp)-NH2 (Anaspec) (1 µM final concentration), incubated for 6 minutes, and quenched by 10 µL of 10% SDS as a stop solution. Fluorescence intensity was monitored with a POLARstar OPTIMA microplate reader (BMG LABTECH). […]
valueType: inhibitory activity (SAR, in words)

> print(dat)
                                  molsmiles                                    target     endpointresult
1  COc1ccc(S(=O)(=O)Nc2nc(CC(=O)Nc3ccc(Br)cc3C)cs2)cc1  full-length NS3/4A protease (genotype 1b) (Hepatitis C virus genotype 1b)  Moderate activity
2  COc1ccc(S(=O)(=O)Nc2nc(CC(=O)Nc3ccc(Br)c(C)c3)cs2)cc1  full-length NS3/4A protease (genotype 1b) (Hepatitis C virus genotype 1b)  Moderate activity
3  Cc1cccc(NC(=O)Cc2csc(NS(=O)(=O)c3ccc(Cl)cc3)n2)c1  full-length NS3/4A protease (genotype 1b) (Hepatitis C virus genotype 1b)  Moderate activity

----------
Biological target: HCV replicon cell lysate sg 1b (NS3) (Hepatitis C virus genotype 1b)
Construct: whole cell lysate
Sequence (Q9WMX2 1658-1711): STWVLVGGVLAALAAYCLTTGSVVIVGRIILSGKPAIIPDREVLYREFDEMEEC
Sequence (Q9WMX2 1027-1657): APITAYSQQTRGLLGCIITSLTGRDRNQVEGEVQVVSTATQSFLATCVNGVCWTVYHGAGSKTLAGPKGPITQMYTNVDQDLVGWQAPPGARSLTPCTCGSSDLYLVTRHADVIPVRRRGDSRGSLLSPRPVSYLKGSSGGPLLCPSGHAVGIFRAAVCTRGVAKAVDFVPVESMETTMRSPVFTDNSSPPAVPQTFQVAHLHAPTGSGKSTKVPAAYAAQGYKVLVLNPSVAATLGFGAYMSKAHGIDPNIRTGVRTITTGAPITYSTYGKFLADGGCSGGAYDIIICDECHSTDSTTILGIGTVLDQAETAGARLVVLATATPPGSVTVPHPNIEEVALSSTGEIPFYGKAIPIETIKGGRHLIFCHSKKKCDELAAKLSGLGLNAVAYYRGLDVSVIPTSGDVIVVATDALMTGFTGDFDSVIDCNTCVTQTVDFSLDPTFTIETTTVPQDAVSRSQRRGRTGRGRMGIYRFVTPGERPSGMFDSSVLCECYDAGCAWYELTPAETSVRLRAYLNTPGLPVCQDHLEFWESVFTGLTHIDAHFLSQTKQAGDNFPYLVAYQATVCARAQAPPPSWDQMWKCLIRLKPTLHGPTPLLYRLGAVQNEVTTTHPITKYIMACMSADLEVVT
Assay: Whole cell lysate inhibition assay, HCV subgenomic replicon 1b
Conditions: whole cell lysate, subgenomic replicon 1b
Method: Huh7-1 cells (also known as Huh7/scr cells) were obtained from F.V. Chisari (The Scripps Research Institute, La Jolla, CA). Clone B HCV sub-genotype 1b Huh7 cells were obtained from the NIH AIDS Research and Reference Reagent Program and have been previously described. […] Fluorescence intensity was continuously monitored for 1 hour, and IC50 values were determined in the same way as biochemical assays.

compound	IC50
COc1ccc2c(O[C@@H]3C[C@H]4C(=O)N[C@]5(C(=O)O)C[C@H]5/C=C\CCCCC[C@H](NC(=O)OC5CCCC5)C(=O)N4C3)cc(-c3csc(NC(C)C)n3)nc2c1 [BILN-2061, reference compound]	37 nM

----------
target: full-length NS3/4A protease (genotype 1b) (Hepatitis C virus genotype 1b, UniProt Q9WMX2); construct: wild-type HCV NS3 (HCV polyprotein residues 1027–1657); His-tag (N); made in house; assay: biochemical; conditions: read-out: percent inhibition at 50 µM compound concentration
valueType: inhibition at 50 µM (%)

> print(dat)
                                  molsmiles  readoutunits  endpointresult
1  CCc1ccc(NC(=O)Cc2csc(NS(=O)(=O)c3ccc(C)cc3)n2)cc1             %             7.2
2  Cc1ccc(S(=O)(=O)Nc2nc(CC(=O)Nc3ccc(Br)cc3C)cs2)cc1             %            29.1
3  Cc1ccc(NC(=O)Cc2csc(NS(=O)(=O)c3ccc(Cl)cc3)n2)cc1Cl             %            29.2
4  O=C(Cc1csc(NS(=O)(=O)c2ccccc2)n1)Nc1cccc(F)c1             %            41.7
5  Cc1ccc(S(=O)(=O)Nc2ccccc2C(=O)Nc2nc3c(C)ccc(C)c3s2)cc1             %               0

----------
target: NS3/4A protease genotype 2a (Hepatitis C virus genotype 2a, UniProt Q99IB8); construct: against the NS3/4A protease domains from three additional HCV genotypes (1a, 2a, and 4d); purchased Anaspec; experiment: Inhibition assay with NS3/4A from genotype 2a; format: biochemical; conditions: IC50 Purified NS3/4A Sub-genotype 2a, genotype 2a
pIC50: −log10 of the molar value.
valueType: pIC50

molecule	valueType	valueOperator	endpointResult
Cc1cc(NC(=O)Cc2csc(NS(=O)(=O)c3ccccc3)n2)ccc1Br	pIC50	=	4.90
COc1ccc2c(O[C@@H]3C[C@H]4C(=O)N[C@]5(C(=O)O)C[C@H]5/C=C\CCCCC[C@H](NC(=O)OC5CCCC5)C(=O)N4C3)cc(-c3csc(NC(C)C)n3)nc2c1 [BILN-2061, reference compound]	pIC50	=	7.92
CC(C)C(=O)N1CCc2ccc(NC(=O)COc3ccc(F)cc3)cc2C1	pIC50	>	4.70

----------
molecular target: full-length NS3/4A genotype 1b mutant V36M (Hepatitis C virus genotype 1b, UniProt Q9WMX2, V1062M); construct: wild-type HCV NS3 (HCV polyprotein residues 1027–1657); His-tag (N); experiment: Inhibition assay with drug-resistant mutant V36M; details: genotype 1b full-length mutant
Form field: IC50 (one value per entry).
valueType: IC50

> print(dat)
                                  molsmiles  endpointresult
1  CC(C)C(=O)N1CCc2ccc(NC(=O)COc3ccc(F)cc3)cc2C1         < 20 µM
2  Cc1cc(NC(=O)Cc2csc(NS(=O)(=O)c3ccccc3)n2)ccc1Br         ≤ 20 µM
